- assayMethodText: Pharmacokinetic study in mice
- Type: in vivo, male CD1 mice
- experimentalConditions: mouse, plasma; IV 2.5 mg/kg, male CD1 mice
assayReadout: MRT (h)
Enter your answer as a number in h; do not include the unit.

Incoming: Please give the documented MRT of CN(C)c1ccc(/C=C/c2cc(-c3ccc(Br)cc3)cc(-c3ccc(Br)cc3)[o+]2)cc1
Outgoing: 7.29

###

// Antibacterial activity (MIC) E. faecium F118 (VRE) lookup, one value per entry
- System: E. faecium F118 (VRE)
- assayMethodText: Antibacterial activity (MIC, broth dilution)
- Type: cell-based
- experimentalConditions: CLSI, in µg/mL
Could you respond with only the numeric value?

Incoming: Please give the documented Antibacterial activity (MIC) E. faecium F118 (VRE) of Cc1ccc(-c2cc(/C=C/C=C/c3ccc(N(C)C)cc3)[o+]c(-c3ccc(C)cc3)c2)cc1.F[B-](F)(F)F [6jc51-2]
Outgoing: 2

Incoming: Please give the documented Antibacterial activity (MIC) E. faecium F118 (VRE) of Cc1ccc(-c2cc(/C=C/c3cc4c5c(c3)CCCN5CCC4)[o+]c(-c3ccc(C)c(C)c3)c2)cc1C.F[B-](F)(F)F [6jc-69-3]
Outgoing: 4

###

- Tested on: E. faecium EF1509 (VRE)
- assayMethodText: Antibacterial activity (MIC, broth dilution)
- Format: cell-based
- experimentalConditions: CLSI, in µg/mL
- Protocol: Determination of the Minimal Inhibitory Concentrations (MIC) by dilution was carried out by broth dilution according to CLSI standards.
assayReadout: Antibacterial activity (MIC) E. faecium EF1509 (VRE)
Could you respond with only the numeric value?

Example cases with answers are listed next.
> print(dat)
                          compoundstructure  obsvalue
1  CN(C)c1ccc(/C=C/c2cc(-c3ccccc3)cc(-c3ccccc3)[o+]2)cc1.F[B-](F)(F)F         4
2  Cc1ccc(-c2cc(/C=C/c3c[nH]c4ccccc34)[o+]c(-c3ccc(C)c(C)c3)c2)cc1C.F[B-](F)(F)F     5.657
3  C(=C\c1cc(-c2ccccc2)cc(-c2ccccc2)[o+]1)/c1cc2c3c(c1)CCCN3CCC2.F[B-](F)(F)F         4
4  CN(C)c1ccc(/C=C/c2cc(-c3ccc(C(C)(C)C)cc3)cc(-c3ccc(C(C)(C)C)cc3)[o+]2)cc1.F[B-](F)(F)F         8
5  Cn1cc(/C=C/c2cc(-c3ccc(C(C)(C)C)cc3)cc(-c3ccc(C(C)(C)C)cc3)[o+]2)c2ccccc21.F[B-](F)(F)F         4

Incoming: Please give the documented Antibacterial activity (MIC) E. faecium EF1509 (VRE) of Cc1ccc(-c2cc(/C=C/C=C/c3ccc(N(C)C)cc3)[o+]c(-c3ccc(C)cc3)c2)cc1.F[B-](F)(F)F
Outgoing: 0.5

Incoming: Please give the documented Antibacterial activity (MIC) E. faecium EF1509 (VRE) of Cc1ccc(-c2cc(/C=C/c3c[nH]c4ccccc34)[o+]c(-c3ccc(C)cc3)c2)cc1.F[B-](F)(F)F
Outgoing: 8

Incoming: Please give the documented Antibacterial activity (MIC) E. faecium EF1509 (VRE) of Brc1ccc(-c2cc(/C=C/c3cc4c5c(c3)CCCN5CCC4)[o+]c(-c3ccc(Br)cc3)c2)cc1.F[B-](F)(F)F
Outgoing: 6

Incoming: Please give the documented Antibacterial activity (MIC) E. faecium EF1509 (VRE) of CCc1ccc(-c2cc(/C=C/c3cc4c5c(c3)CCCN5CCC4)[o+]c(-c3ccc(CC)cc3)c2)cc1.F[B-](F)(F)F
Outgoing: 2

Incoming: Please give the documented Antibacterial activity (MIC) E. faecium EF1509 (VRE) of C(=C\c1c[nH]c2ccccc12)/c1cc(-c2ccccc2)cc(-c2ccccc2)[o+]1.F[B-](F)(F)F
Outgoing: 16

Incoming: Please give the documented Antibacterial activity (MIC) E. faecium EF1509 (VRE) of Cc1ccc(-c2cc(/C=C/c3cn(C)c4ccccc34)[o+]c(-c3ccc(C)cc3)c2)cc1.F[B-](F)(F)F
Outgoing: 2

Incoming: Please give the documented Antibacterial activity (MIC) E. faecium EF1509 (VRE) of CN(C)c1ccc(/C=C/c2cc(-c3ccc(Cl)cc3)cc(-c3ccc(Cl)cc3)[o+]2)cc1.F[B-](F)(F)F
Outgoing: 22.63

Incoming: Please give the documented Antibacterial activity (MIC) E. faecium EF1509 (VRE) of Cc1ccc(-c2cc(/C=C/c3cc4c5c(c3)CCCN5CCC4)[o+]c(-c3ccc(C)cc3)c2)cc1.F[B-](F)(F)F
Outgoing: 2

Incoming: Please give the documented Antibacterial activity (MIC) E. faecium EF1509 (VRE) of Cc1ccc(-c2cc(/C=C/c3cc4c5c(c3)CCCN5CCC4)[o+]c(-c3ccc(C)c(C)c3)c2)cc1C.F[B-](F)(F)F
Outgoing: 2.83

###

- target: CYP3A4 (Homo sapiens)
- Construct: purchased Corning
- assayMethodText: Cytochrome P450 inhibition
- Type: in vitro ADME
- experimentalConditions: IC50 fluorescence, substrate BFC; read-out: P450 enzyme inhibition IC50 CYP3A4/ BFC
assayReadout: IC50

Incoming: Please give the documented IC50 of CN(C)c1ccc(/C=C/c2cc(-c3ccc(Br)cc3)cc(-c3ccc(Br)cc3)[o+]2)cc1
Outgoing: 1.3 µM

###

- Tested on: E. faecium F118 (VRE)
- assayMethodText: Antibacterial activity (MIC, broth dilution)
- Format: cell-based
- experimentalConditions: CLSI, in µg/mL
assayReadout: Antibacterial activity (MIC) E. faecium F118 (VRE)
Could you respond with only the numeric value?

Example cases with answers are listed next.
> print(dat)
                          compoundstructure                 target  obsvalue
1  Cc1cc(/C=C/c2ccc(N(C)C)cc2)cc(C)[o+]1.F[B-](F)(F)F  E. faecium F118 (VRE)        64
2  CCc1ccc(-c2cc(/C=C/c3cc4c5c(c3)CCCN5CCC4)[o+]c(-c3ccc(CC)cc3)c2)cc1.F[B-](F)(F)F  E. faecium F118 (VRE)         2
3  Cc1ccc(-c2cc(/C=C/c3ccc(N(C)C)cc3)[o+]c(-c3ccc(C)c(C)c3)c2)cc1C.F[B-](F)(F)F  E. faecium F118 (VRE)         4
4  CN(C)c1ccc(/C=C/c2cc(-c3ccc(Cl)cc3)cc(-c3ccc(Cl)cc3)[o+]2)cc1.F[B-](F)(F)F  E. faecium F118 (VRE)         8
5  Cc1ccc(-c2cc(/C=C/c3c[nH]c4ccccc34)[o+]c(-c3ccc(C)cc3)c2)cc1.F[B-](F)(F)F  E. faecium F118 (VRE)     5.657

Incoming: Given C(=C\c1c[nH]c2ccccc12)/c1cc(-c2ccccc2)cc(-c2ccccc2)[o+]1.F[B-](F)(F)F , report its Antibacterial activity (MIC) E. faecium F118 (VRE) on E. faecium F118 (VRE).
Outgoing: 16

Incoming: Given CN(C)c1ccc(/C=C/C=C/c2cc(-c3ccccc3)cc(-c3ccccc3)[o+]2)cc1.F[B-](F)(F)F , report its Antibacterial activity (MIC) E. faecium F118 (VRE) on E. faecium F118 (VRE).
Outgoing: 4

Incoming: Given Cc1ccc(-c2cc(/C=C/c3cn(C)c4ccccc34)[o+]c(-c3ccc(C)cc3)c2)cc1.F[B-](F)(F)F , report its Antibacterial activity (MIC) E. faecium F118 (VRE) on E. faecium F118 (VRE).
Outgoing: 4

Incoming: Given CN(C)c1ccc(/C=C/c2cc(-c3ccc(C(C)(C)C)cc3)cc(-c3ccc(C(C)(C)C)cc3)[o+]2)cc1.F[B-](F)(F)F , report its Antibacterial activity (MIC) E. faecium F118 (VRE) on E. faecium F118 (VRE).
Outgoing: 8

Incoming: Given Clc1ccc(-c2cc(/C=C/c3cc4c5c(c3)CCCN5CCC4)[o+]c(-c3ccc(Cl)cc3)c2)cc1.F[B-](F)(F)F , report its Antibacterial activity (MIC) E. faecium F118 (VRE) on E. faecium F118 (VRE).
Outgoing: 5.66

###

- target: CYP3A4 (Homo sapiens, UniProt P08684)
- Construct: purchased Corning
- Sequence (P08684 whole entry): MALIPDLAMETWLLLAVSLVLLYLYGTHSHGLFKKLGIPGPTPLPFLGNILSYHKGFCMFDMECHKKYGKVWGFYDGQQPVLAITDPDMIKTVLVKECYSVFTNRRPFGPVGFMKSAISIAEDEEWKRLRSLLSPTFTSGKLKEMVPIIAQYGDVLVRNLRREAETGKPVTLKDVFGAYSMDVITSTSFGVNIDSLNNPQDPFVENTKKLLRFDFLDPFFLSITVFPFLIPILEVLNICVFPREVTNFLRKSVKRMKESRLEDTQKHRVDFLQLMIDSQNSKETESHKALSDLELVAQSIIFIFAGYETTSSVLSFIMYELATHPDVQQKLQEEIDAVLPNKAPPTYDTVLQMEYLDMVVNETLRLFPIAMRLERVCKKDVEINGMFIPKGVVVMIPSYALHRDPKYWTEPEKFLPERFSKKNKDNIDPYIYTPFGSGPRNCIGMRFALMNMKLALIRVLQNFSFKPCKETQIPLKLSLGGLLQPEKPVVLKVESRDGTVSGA
- assayMethodText: Cytochrome P450 inhibition
- Assay type: in vitro ADME
- experimentalConditions: human, recombinant human CYP3A4 (Supersomes), pH 7.4, probe DBF; IC50 fluorescence, substrate DBF; read-out: P450 enzyme inhibition IC50 CYP3A4/ DBF
pIC50: −log10 of the molar value.
assayReadout: pIC50

Incoming: Please give the documented pIC50 of CN(C)c1ccc(/C=C/c2cc(-c3ccc(Br)cc3)cc(-c3ccc(Br)cc3)[o+]2)cc1
Outgoing: < 5.00

###

- assayMethodText: Liver microsome stability
- Type: in vitro ADME
- experimentalConditions: human liver microsomes, pH 7.4, 1h 37 °C, read-out: Liver microsome stability clearance
assayReadout: microsomal CLint at 10 uM

Incoming: Please give the documented microsomal CLint at 10 uM of CN(C)c1ccc(/C=C/c2cc(-c3ccc(Br)cc3)cc(-c3ccc(Br)cc3)[o+]2)cc1
Outgoing: < 23 µL/min/mg

# credit: paper PMC5077133
